src = PubChem BioAssay

# Measurement Target: NADPH oxidase 2 (Homo sapiens) (UniProt P04839)
# Sequence (P04839 whole entry, looked up): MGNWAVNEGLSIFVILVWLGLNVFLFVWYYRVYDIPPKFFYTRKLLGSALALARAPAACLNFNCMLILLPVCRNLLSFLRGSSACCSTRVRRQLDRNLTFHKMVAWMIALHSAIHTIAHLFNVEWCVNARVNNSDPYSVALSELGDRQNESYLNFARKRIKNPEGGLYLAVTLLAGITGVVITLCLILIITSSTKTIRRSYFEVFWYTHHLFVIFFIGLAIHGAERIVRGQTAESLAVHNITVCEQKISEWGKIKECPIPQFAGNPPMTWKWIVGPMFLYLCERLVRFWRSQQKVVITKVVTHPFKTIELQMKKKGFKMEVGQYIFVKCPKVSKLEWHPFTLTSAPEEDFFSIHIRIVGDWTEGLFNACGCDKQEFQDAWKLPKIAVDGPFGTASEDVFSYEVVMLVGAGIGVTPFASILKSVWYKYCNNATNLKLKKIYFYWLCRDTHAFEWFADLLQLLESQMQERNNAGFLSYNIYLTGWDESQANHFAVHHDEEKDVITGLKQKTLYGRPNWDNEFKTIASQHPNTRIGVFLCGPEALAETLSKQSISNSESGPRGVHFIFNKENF
# Method: compounds shifting NOX2 Amplex Red fluorescence – cell-based, HEK293-NOX2, PMA-stimulated, NOX inhibitor project, primary screen (AID 1159); further: test concentration not given here
# Settings: 45 min, higher = more signal, called active from +8 up or from −8 down
Respond with label 1 for z-score values of 0.2 and above, label 0 for values below.

z-score >= 0.2 for O=C1[C@H]2C=C(Br)[C@H](C[C@@H]2OCCCCCCO)[C@@]12CO2 ?
label 1

z-score >= 0.2 for O=C1O[C@@H](c2ccccc2)[C@@H](c2ccccc2)N2[C@@H](c3ccc(OCCO)cc3)[C@]3(C(=O)Nc4ccc(C#CC5=CCCCC5)cc43)[C@@H](C(=O)N3CCCCCCC3)[C@H]12 ?
label 1

z-score >= 0.2 for COc1ccc(C(=O)Nc2ccc(CN3C(=O)[C@]4(O[C@H](CC(=O)N5CCC[C@H]5CO)[C@@H]([Si](C)(C)c5ccc(OC)cc5)[C@@H]4C)c4ccccc43)cc2)cc1 ?
label 1

z-score >= 0.2 for CCCCC(O)C1C=CC2C(=O)N(C)C(=O)C2N1N1CCCCC1 (centres undefined) ?
label 0

z-score >= 0.2 for CCOC(=O)C1=C[C@@H](C(C)C)N(S(=O)(=O)c2ccc(C)cc2)[C@H]1c1ccccc1F ?
label 0

====

# Method: probe aNOTCH2 binding on compound microarray – biochemical, small-molecule microarray, 635/667 nm fluorescence, primary screen (AID 1121);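 further: score merges feature fluorescence read at 667 nm with its signal to noise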
# Settings: higher = more signal
Respond with T for composite z-score values of -0.06 and above, F for values below.

A selection of reference data follows.
molecule=COCC(=C=CC[C@H](O)c1cccc(OCCO)c1)C[C@H](O)c1cc(Cl)cc(Cl)c1O label=T
molecule=COCCCNC(=O)[C@@]1(Cc2ccccc2)N=C(c2ccc(OCCCO)cc2)O[C@H]1c1ccccc1CN=[N+]=[N-] label=T
molecule="CC1CC/C=C\\[C@H]2OC34C=CCN(Cc5ccccc5)C(=O)[C@H]3N(C(C)CO)C(=O)[C@@H]4C2C(=O)O1 (some centres not stated)" label=F
molecule=COC(=O)C(CC#Cc1ccc2c(c1)[C@]1(C(=O)N2)[C@H](c2ccc(O)cc2)N2[C@H](c3ccccc3)[C@H](c3ccccc3)OC(=O)[C@H]2[C@@H]1C(=O)N1CCN(c2ncccn2)CC1)C(=O)OC label=T

API: the following record is the query input.
composite z-score >= -0.06 for CN(C)CCCCNC(=O)[C@@H]1C[C@@H]2C(=O)N[C@@H](CCCCN)C(=O)N2[C@@H]1c1ccc(O)cc1 ?
T

====

# System: Sonic hedgehog protein (Shh)
# Method: Sonic hedgehog microarray binding compounds – biochemical, small-molecule microarray, 635/667 nm fluorescence, primary screen (AID 1151);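 further: Shh protein binding to compounds spotted on small-molecule microarray slides; score combines spot fluorescence intensity with signal-to-noise across triplicate slides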
# Settings: 635 nm fluorescence, higher = more signal
Endpoint: composite z-score
Could you keep your reply to the number by itself?

Answered cases to consult:
compound=CO[C@H]1O[C@H](CO)[C@@H](OC(=O)Nc2ccccc2-c2ccccc2)[C@H](OC(=O)Nc2ccccc2-c2ccccc2)[C@@H]1OC(=O)Nc1ccccc1-c1ccccc1 measurement_target="Sonic hedgehog protein (Shh)" numeric_value=1.37
compound=CC[C@@H]1C=C(C(=O)O)[C@H](c2ccc(C)cc2)N1S(=O)(=O)c1ccc(C)cc1 measurement_target="Sonic hedgehog protein (Shh)" numeric_value=-0.103
compound="N#Cc1ccc(C(O)C2C=CC3C(=O)N(c4ccccc4)C(=O)C3N2Nc2ccccc2F)cc1 (stereo not given)" measurement_target="Sonic hedgehog protein (Shh)" numeric_value=-0.234
compound=[N-]=[N+]=Nc1ccccc1[C@H]1OC(c2ccc(OCCCO)cc2)=N[C@@]1(CCS(=O)(=O)c1ccccc1)C(=O)NCc1ccccc1 measurement_target="Sonic hedgehog protein (Shh)" numeric_value=0.0239
compound="CC(=O)n1cc(C(O)C2C=CC3C(=O)NC(=O)C3N2Nc2ccccn2)c2ccccc21 (stereo not given)" measurement_target="Sonic hedgehog protein (Shh)" numeric_value=0.41
compound=C=CC[C@@]1(C(=O)N2CCCCC2)N=C(c2ccc(OCCCO)cc2)O[C@@H]1c1ccccc1CN=[N+]=[N-] measurement_target="Sonic hedgehog protein (Shh)" numeric_value=0.466

Given the entry C[N+](C)(C)CCCCCCNC(=O)[C@H]1C[C@H]2C(=O)N[C@@H](Cc3ccccc3)C(=O)N2[C@H]1c1cccc(OCCO)c1 , what composite z-score was observed with Sonic hedgehog protein (Shh)?
2.08

Given the entry COCC(=C=CC[C@H](O)c1cccc(OCCO)c1)CCO , what composite z-score was observed with Sonic hedgehog protein (Shh)?
1.81

Given the entry Cc1ccc(S(=O)(=O)N2C[C@@H](C(=O)O)[C@H](Sc3ccccc3)C[C@H]2c2ccccc2)cc1 , what composite z-score was observed with Sonic hedgehog protein (Shh)?
-0.156

Given the entry COC(=O)C[C@H]1O[C@@H](CCc2ccccc2)[C@@H](C)[C@@H]1[Si](C)(C)c1ccc(OC)cc1 , what composite z-score was observed with Sonic hedgehog protein (Shh)?
-0.243

Given the entry CS(=O)(=O)CCOC(=O)C1=CC(CCCO)=CC(c2ccc(CN3CCCC3)cc2)N(Cc2cccc(OC(F)(F)F)c2)C=C1C(=O)OCCS(C)(=O)=O (stereo not given) , what composite z-score was observed with Sonic hedgehog protein (Shh)?
0.798

Given the entry C=CCNC(=O)[C@@H]1[C@H]2C(=O)O[C@H](c3ccccc3)[C@H](c3ccccc3)N2[C@H](c2ccc(OCCO)cc2)[C@@]12C(=O)N(C(=O)OCCOC)c1ccc(C#CCC(C(=O)OC)C(=O)OC)cc12 , what composite z-score was observed with Sonic hedgehog protein (Shh)?
1.09

Given the entry COCCCNC(=O)[C@@]1(Cc2ccccc2)N=C(c2ccc(OCCCO)cc2)O[C@H]1c1ccccc1CN=[N+]=[N-] , what composite z-score was observed with Sonic hedgehog protein (Shh)?
-0.0164

Given the entry CO[C@H]1O[C@H](CO)[C@@H](OC(=O)Nc2ccc(Br)cc2)[C@@H]2OC(=O)[C@H](Cc3cccc(Br)c3)C/C=C/C[C@@H](Cc3cccc(Br)c3)C(=O)O[C@@H]12 , what composite z-score was observed with Sonic hedgehog protein (Shh)?
1.58

Given the entry C=CCC(OC(C)=O)[C@@H]1[C@@H](N(Cc2ccc(-c3cccc(C(F)(F)F)c3)o2)C(=O)c2cccc3ccccc23)c2cc(OCCCO)ccc2N1C(=O)Cc1ccc2ccccc2c1 (stereo not given in full) , what composite z-score was observed with Sonic hedgehog protein (Shh)?
0.248

Given the entry CN(C)CCCCNC(=O)[C@@H]1C[C@@H]2C(=O)N[C@@H](CCCCN)C(=O)N2[C@@H]1c1ccc(O)cc1 , what composite z-score was observed with Sonic hedgehog protein (Shh)?
1.23

Given the entry [N-]=[N+]=Nc1ccccc1C[C@@]1(C(=O)N2CCCCC2)N=C(c2ccc(OCCCO)cc2)O[C@@H]1c1ccccc1 , what composite z-score was observed with Sonic hedgehog protein (Shh)?
0.131

Given the entry CCCCN1CC=CC23O[C@@H]4/C=C\CCCOC(=O)C4[C@H]2C(=O)N(CCCO)[C@@H]3C1=O (stereo not given in full) , what composite z-score was observed with Sonic hedgehog protein (Shh)?
-0.0567

Given the entry O=C(CS)NCCCCCNC(=O)[C@@H]1C[C@@H]2C(=O)NCC(=O)N2[C@@H]1c1cccc(OCCO)c1 , what composite z-score was observed with Sonic hedgehog protein (Shh)?
1.77

Given the entry CC(C)(C)OC(=O)CC[C@]1(C(N)=O)N=C(c2ccc(OCCCO)cc2)O[C@H]1c1ccccc1 , what composite z-score was observed with Sonic hedgehog protein (Shh)?
-0.332
